binders and their reported koff
- system-under-test: T1, Human IL13Rα2 (human, UniProt Q14627 27-343, limits assumed)
- T1 construct: also called human recombinant IL13Rα2; Human IL13Ra2
- T1 sequence (looked up): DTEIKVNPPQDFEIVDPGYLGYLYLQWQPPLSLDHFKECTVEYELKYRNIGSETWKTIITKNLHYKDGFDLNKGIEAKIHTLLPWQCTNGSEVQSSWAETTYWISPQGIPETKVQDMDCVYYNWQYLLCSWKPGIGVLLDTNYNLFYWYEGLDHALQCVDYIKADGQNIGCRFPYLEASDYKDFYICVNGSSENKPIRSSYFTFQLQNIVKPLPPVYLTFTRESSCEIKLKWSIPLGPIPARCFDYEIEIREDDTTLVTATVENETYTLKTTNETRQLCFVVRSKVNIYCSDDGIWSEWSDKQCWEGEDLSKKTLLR
- test-name: SPR Biacore 8K affinity ranking, antibody supernatant Fc-captured, 100 nM IL13Rα2 analyte
Give the value in s⁻¹ but do not write s⁻¹ after it.

Answered examples (3):
Humanized antibody VH3 + VL3 (antibody, human IgG1, kappa, V domains shown) VH: QVQLVQSGAEVKKPGASVKVSCKASGYTFSNYLMNWVRQAPGQGLEWMGRIDPYDGDIDYNQNFKDRVTMTRDTSTSTVYMELSSLRSEDTAVYYCARGYGTAYGVDYWGQGTLVTVSS VL: EIVLTQSPATLSLSPGERATLSCRASESVDNYGISFMNWYQQKPGQAPRLLIYAASRQGSGIPARFSGSGSGTDFTLTISSLEPEDFAVYYCQQSKEVPWTFGGGTKLEIKR; 0.000702
Humanized antibody VH3 + VL2 (antibody, human IgG1, kappa, V domains shown) VH: QVQLVQSGAEVKKPGASVKVSCKASGYTFSNYLMNWVRQAPGQGLEWMGRIDPYDGDIDYNQNFKDRVTMTRDTSTSTVYMELSSLRSEDTAVYYCARGYGTAYGVDYWGQGTLVTVSS VL: DIQMTQSPSSLSASVGDRVTITCRASESVDNYGISFMNWYQQKPGKAPKLLIYAASRQGSGVPSRFSGSGSGTDFTLTISSLQPEDFATYYCQQSKEVPWTFGGGTKLEIKR; 0.000595
Humanized antibody VH1 + VL4 (antibody, human IgG1, kappa, V domains shown, also called U3621EI120 VH1+VL4) VH: QVQLVQSGAEVKKPGSSVKVSCKASGYTFSNYLMNWVRQAPGQGLEWMGRIDPYDGDIDYNQNFKDRVTITADKSTSTAYMELSSLRSEDTAVYYCARGYGTAYGVDYWGQGTLVTVSS VL: EIVMTQSPATLSVSPGERATLSCRASESVDNYGISFMNWYQQKPGQAPRLLIYAASRQGSGIPARFSGSGSGTEFTLTISSLQSEDFAVYYCQQSKEVPWTFGGGTKLEIKR; 0.000269

// returns reported koff for input Humanized antibody VH3 + VL1 (antibody, human IgG1, kappa, V domains shown) VH: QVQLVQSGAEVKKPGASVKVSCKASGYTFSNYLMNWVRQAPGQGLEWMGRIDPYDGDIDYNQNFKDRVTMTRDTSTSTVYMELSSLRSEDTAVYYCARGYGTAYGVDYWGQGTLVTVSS VL: DIVMTQSPDSLAVSLGERATINCRASESVDNYGISFMNWYQQKPGQPPKLLIYAASRQGSGVPDRFSGSGSGTDFTLTISSLQAEDVAVYYCQQSKEVPWTFGGGTKLEIKR
0.000595

Note, next up: Humanized antibody VH4 + VL2 (antibody, human IgG1, kappa, V domains shown) VH: QVQLVQSGAEVKKPGASVKVSCKASGYTFSNYLMNWVRQATGQGLEWMGRIDPYDGDIDYNQNFKDRVTITRNTSISTAYMELSSLRSEDTAVYYCARGYGTAYGVDYWGQGTLVTVSS VL: DIQMTQSPSSLSASVGDRVTITCRASESVDNYGISFMNWYQQKPGKAPKLLIYAASRQGSGVPSRFSGSGSGTDFTLTISSLQPEDFATYYCQQSKEVPWTFGGGTKLEIKR
0.000445
